Target: HLA-B35
Test: REVEAL MHC-peptide binding
Assign class by % of positive control: not lower than 3% means t; lower than 3% means f.

Record P[Cit]IGVRAT[Cit] (peptide) ; criterion: % of positive control no lower than 3%. Met? f

Try this substance next: [Nle]GYIPLIGA (peptide) t

Try this substance next: L[Nle]GYIPLIG (peptide) f

Try this substance next: EL[Nle]GYIPLI (peptide) f

Try this substance next: [Cit]IGVRAT[Cit]R (peptide) t

Try this substance next: GP[Cit]IGVRAT (peptide) f

====

Molecular target: HLA-B15
Experiment: REVEAL MHC-peptide binding
EXPERIMENTAL_READOUT: % of positive control (%)
Numbers only; they are read as %.

Provide the documented % of positive control with HLA-B15 as the system for GP[Cit]IGVRAT (peptide) 7.29

Try this substance next: L[Nle]GYIPLIG (peptide) 14.6

Try this substance next: EL[Nle]GYIPLI (peptide) 8.91
